- TESTED_TARGET: Mitogen-activated protein kinase 1 (Homo sapiens)
- Sequence (P28482 whole entry): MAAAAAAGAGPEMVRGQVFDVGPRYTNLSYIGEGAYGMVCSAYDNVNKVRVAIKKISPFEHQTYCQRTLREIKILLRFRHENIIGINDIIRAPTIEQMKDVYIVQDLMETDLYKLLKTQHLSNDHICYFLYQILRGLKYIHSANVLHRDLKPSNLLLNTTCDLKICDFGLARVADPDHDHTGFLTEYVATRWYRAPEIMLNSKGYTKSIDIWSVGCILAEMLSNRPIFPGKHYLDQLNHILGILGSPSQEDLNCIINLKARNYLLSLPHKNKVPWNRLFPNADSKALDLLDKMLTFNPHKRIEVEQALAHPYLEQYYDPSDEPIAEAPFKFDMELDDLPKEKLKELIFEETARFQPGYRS
- METHOD_SUMMARY: Binding affinity to ERK2 (unknown origin) assessed as dissociation constant by MST analysis
ASSAY_METRIC: pKd
Worth noting: pKd values are minus log10 of concentrations stated in mol/L.

input: Identify the reported pKd for the following entry. `O=C(Nc1cc(C(F)(F)F)cc(C(F)(F)F)c1)N[C@@H](Cc1ccccc1)Cn1c[n+](Cc2ccc3ccccc3c2)c2ccccc21.[Br-]`
output: 6.94

* * *

- METHOD_SUMMARY: Oral availability in Sprague-Dawley rat at 10 mg/kg by LC-MS/MS analysis
- Assay type: ADME, organism-based
- TEST_CONTEXT: in vivo
ASSAY_METRIC: bioavailability (%)
Number in %, nothing else.

input: Identify the reported bioavailability for the following entry. `O=C(Nc1cc(C(F)(F)F)cc(C(F)(F)F)c1)N[C@@H](Cc1ccccc1)Cn1c[n+](Cc2ccc3ccccc3c2)c2ccccc21.[Br-]`
output: 37.1
